// reported ratio to parent for each item listed
B1: H2-Kb / B5 (parent)
chain 1: TQTVSQSDAHVTVFEGDSVELRCNYSYGGSIYLSWYIQHHGHGLQFLLKYYSGNPVVQGVNGFEAEFSKSDSSFHLRKASVHWSDSAVYFCAVSLYQGGRALIFGTGTTVSVSP
chain 2: EAGVTQSPRYAVLQEGQAVSFWCDPISGHDTLYWYQQPRDQGPQLLVYFRDEAVIDNSQLPSDRFSAVRPKGTNSTLKIQSAKQGDTATYLCASSFAGGARAEQFFGPGTRLTVL
chain 3: not shown
chain 4: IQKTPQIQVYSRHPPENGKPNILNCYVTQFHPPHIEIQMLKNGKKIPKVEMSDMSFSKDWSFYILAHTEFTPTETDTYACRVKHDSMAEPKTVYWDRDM
chain 5: SIINFEKL

Variants of: B1
method_summary: % of reporter cells activated (NFAT-GFP), raw; note: test concentration or dose not given here
condition_description: with B5; scale: % of reporter cells activated

Some solved entries appear below for comparison.
> print(dat)
   mutation.notation  measurement.label  observed.result
1        chain 5 F5M    ratio to parent             1.01
2        chain 5 L8G    ratio to parent            0.972
3        chain 5 I3A    ratio to parent             1.01
4        chain 5 L8V    ratio to parent             1.35

Record chain 5 N4Q , field ratio to parent: 1.71

Lab note: chain 5 E6F gave ratio to parent of 1.54

Recorded ratio to parent (variant chain 5 I2D ): 1.18

The measured ratio to parent associated with chain 5 I2T reads 0.542

Please fill in: ratio to parent reported for chain 5 N4M = 0.75

ratio to parent in this record for chain 5 K7N : 1.21

For reference, reported ratio to parent for chain 5 I3P stands at 1.08

Documented ratio to parent of chain 5 F5Q : 1.14

Noted for chain 5 L8D : its ratio to parent reads 1.33

ratio to parent measured on chain 5 N4Y = 1

ratio to parent reading for chain 5 N4L : 1.08

The recorded ratio to parent for entry chain 5 L8W equals 1.47

Quick note, ratio to parent for chain 5 S1C landed at 0.875
